# Tested on: 439559-082-T-J2-PDC complex spheroid growth
# Test name: Anticancer human tumor 439559-082-T-J2-PDC patient-derived colon adenocarcinoma cell line growth inhibition [Asc]
# Recorded conditions: second compound 0.949 µM; first compound 0.316 µM; stronger effect = lower value
Quantity: viability, T/C (%)
One number for each entry, in %.

Sample records with viability, T/C:
>  <Molecule>
C#Cc1c(F)ccc2cc(O)cc(-c3ncc4c(N5CC6CCC(C5)N6)nc(OCC56CCCN5CC(F)C6)nc4c3F)c12 (centres undefined) + CCN1C(C(=O)NC23CCC(C(=O)O)(CC2)CC3)C(c2cccc(Cl)c2F)C2(C(=O)Nc3cc(Cl)ccc32)C12CCCCC2

>  <Value reported>
72.8

$$$$
>  <Molecule>
COc1c(OCCCN2CCOCC2)ccc2c3n(c(=NC(=O)c4cnc(N)nc4)nc12)CCN3 + CCN1C(C(=O)NC23CCC(C(=O)O)(CC2)CC3)C(c2cccc(Cl)c2F)C2(C(=O)Nc3cc(Cl)ccc32)C12CCCCC2

>  <Value reported>
60.6

$$$$
>  <Molecule>
CNC(C)C(=O)NC1CN(S(=O)(=O)c2cccc(S(=O)(=O)N3CCC4CCC(C(=O)NC(c5ccccc5)c5ccccc5)N4C(=O)C(NC(=O)C(C)NC)C3)c2)CCC2CCC(C(=O)NC(c3ccccc3)c3ccccc3)N2C1=O (centres undefined) + CCN1C(C(=O)NC23CCC(C(=O)O)(CC2)CC3)C(c2cccc(Cl)c2F)C2(C(=O)Nc3cc(Cl)ccc32)C12CCCCC2

>  <Value reported>
92.8

$$$$

Next molecule, viability, T/C to be filled in.
For the molecule CCN1CCN(Cc2ccc(Nc3ncc(F)c(-c4cc(F)c5nc(C)n(C(C)C)c5c4)n3)nc2)CC1 + CCN1C(C(=O)NC23CCC(C(=O)O)(CC2)CC3)C(c2cccc(Cl)c2F)C2(C(=O)Nc3cc(Cl)ccc32)C12CCCCC2 , report viability, T/C. 96.7

---

For each entry below, report its viability, T/C value.
# Tested on: 439559-082-T-J2-PDC complex spheroid growth
# Test name: Anticancer human tumor 439559-082-T-J2-PDC cell line growth inhibition [Asc];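 note: spheroids exposed to agents for 7 days starting day 3 after seeding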;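 for viability, T/C: percent of DMSO vehicle control viability with 100% = vehicle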
# Recorded conditions: second compound 1 µM; first compound 0.03 µM; stronger effect = lower value
Answers are plain numbers, in %.

>  <Molecule>
NC(=O)C(=Cn1cnc(-c2cc(C(F)(F)F)cc(C(F)(F)F)c2)n1)c1cncnc1 + CNC(C)C(=O)NC1CN(S(=O)(=O)c2cccc(S(=O)(=O)N3CCC4CCC(C(=O)NC(c5ccccc5)c5ccccc5)N4C(=O)C(NC(=O)C(C)NC)C3)c2)CCC2CCC(C(=O)NC(c3ccccc3)c3ccccc3)N2C1=O

>  <viability, T/C / %>
71.4

$$$$

For each entry beneath this line, provide reported viability, T/C.
1. Cc1nc(N2CCC3(CC2)COC(C)C3N)c(CO)nc1Sc1ccnc(N)c1Cl (stereo not drawn) + Cc1c(S(C)(=O)=O)c(-c2cc(F)cc(N3CCN(c4ccc(NS(=O)(=O)c5ccc(NC(CCN6CCC(C(=O)OCCCP(=O)(O)O)CC6)CSc6ccccc6)c(S(=O)(=O)C(F)(F)F)c5)cc4)CC3)c2)c(-c2ccc(Cl)cc2)n1C(C)C
2. CCN1C(C(=O)NC23CCC(C(=O)O)(CC2)CC3)C(c2cccc(Cl)c2F)C2(C(=O)Nc3cc(Cl)ccc32)C12CCCCC2 (stereo not drawn) + CNC(C)C(=O)NC1CN(S(=O)(=O)c2cccc(S(=O)(=O)N3CCC4CCC(C(=O)NC(c5ccccc5)c5ccccc5)N4C(=O)C(NC(=O)C(C)NC)C3)c2)CCC2CCC(C(=O)NC(c3ccccc3)c3ccccc3)N2C1=O

[97.5, 87.7]

---

# Test system: 439559-082-T-J2-PDC complex spheroid growth
# Test name: Anticancer human tumor 439559-082-T-J2-PDC cell line growth inhibition [Asc];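 note: spheroids exposed to agents for 7 days starting day 3 after seeding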
# Recorded conditions: curve of first compound; second compound 0.0316 µM
For each entry below, report its IC50 value.

Sample records with IC50:
>  <Compound>
C=CC(=O)N1CCN(c2nc(=O)n(-c3c(C)ccnc3C(C)C)c3nc(-c4c(O)cccc4F)c(F)cc23)C(C)C1 (stereo not drawn) + CNC(C)C(=O)NC1CN(S(=O)(=O)c2cccc(S(=O)(=O)N3CCC4CCC(C(=O)NC(c5ccccc5)c5ccccc5)N4C(=O)C(NC(=O)C(C)NC)C3)c2)CCC2CCC(C(=O)NC(c3ccccc3)c3ccccc3)N2C1=O

>  <IC50>
> 10000 nM

$$$$
>  <Compound>
Cn1ncnc1[C@H]1c2n[nH]c(=O)c3cc(F)cc(c23)N[C@@H]1c1ccc(F)cc1 + CNC(C)C(=O)NC1CN(S(=O)(=O)c2cccc(S(=O)(=O)N3CCC4CCC(C(=O)NC(c5ccccc5)c5ccccc5)N4C(=O)C(NC(=O)C(C)NC)C3)c2)CCC2CCC(C(=O)NC(c3ccccc3)c3ccccc3)N2C1=O

>  <IC50>
> 100 nM

$$$$
>  <Compound>
Cc1nc(N2CCC3(CC2)COC(C)C3N)c(CO)nc1Sc1ccnc(N)c1Cl (stereo not drawn) + CNC(C)C(=O)NC1CN(S(=O)(=O)c2cccc(S(=O)(=O)N3CCC4CCC(C(=O)NC(c5ccccc5)c5ccccc5)N4C(=O)C(NC(=O)C(C)NC)C3)c2)CCC2CCC(C(=O)NC(c3ccccc3)c3ccccc3)N2C1=O

>  <IC50>
> 3000 nM

$$$$

For each entry beneath this line, provide reported IC50.
1. CCN1CCN(Cc2ccc(Nc3ncc(F)c(-c4cc(F)c5nc(C)n(C(C)C)c5c4)n3)nc2)CC1 + CNC(C)C(=O)NC1CN(S(=O)(=O)c2cccc(S(=O)(=O)N3CCC4CCC(C(=O)NC(c5ccccc5)c5ccccc5)N4C(=O)C(NC(=O)C(C)NC)C3)c2)CCC2CCC(C(=O)NC(c3ccccc3)c3ccccc3)N2C1=O
2. C=C(F)C(=O)N1CCN(c2nc(OCC3CCCN3C)nc3c2CCN(c2cccc4cccc(Cl)c24)C3)CC1CC#N (stereo not drawn) + CNC(C)C(=O)NC1CN(S(=O)(=O)c2cccc(S(=O)(=O)N3CCC4CCC(C(=O)NC(c5ccccc5)c5ccccc5)N4C(=O)C(NC(=O)C(C)NC)C3)c2)CCC2CCC(C(=O)NC(c3ccccc3)c3ccccc3)N2C1=O
3. NC(=O)C(=Cn1cnc(-c2cc(C(F)(F)F)cc(C(F)(F)F)c2)n1)c1cncnc1 + CNC(C)C(=O)NC1CN(S(=O)(=O)c2cccc(S(=O)(=O)N3CCC4CCC(C(=O)NC(c5ccccc5)c5ccccc5)N4C(=O)C(NC(=O)C(C)NC)C3)c2)CCC2CCC(C(=O)NC(c3ccccc3)c3ccccc3)N2C1=O

1. > 1000 nM
2. 4250 nM
3. > 300 nM

For each entry beneath this line, provide reported IC50.
1. O=C(c1ccc(F)c(F)c1Nc1ccc(I)cc1F)N1CC(O)([C@@H]2CCCCN2)C1 + CNC(C)C(=O)NC1CN(S(=O)(=O)c2cccc(S(=O)(=O)N3CCC4CCC(C(=O)NC(c5ccccc5)c5ccccc5)N4C(=O)C(NC(=O)C(C)NC)C3)c2)CCC2CCC(C(=O)NC(c3ccccc3)c3ccccc3)N2C1=O
2. CCN1C(C(=O)NC23CCC(C(=O)O)(CC2)CC3)C(c2cccc(Cl)c2F)C2(C(=O)Nc3cc(Cl)ccc32)C12CCCCC2 (stereo not drawn) + CNC(C)C(=O)NC1CN(S(=O)(=O)c2cccc(S(=O)(=O)N3CCC4CCC(C(=O)NC(c5ccccc5)c5ccccc5)N4C(=O)C(NC(=O)C(C)NC)C3)c2)CCC2CCC(C(=O)NC(c3ccccc3)c3ccccc3)N2C1=O

1: 253 nM; 2: > 3000 nM

---

# Tested on: 439559-082-T-J2-PDC complex spheroid growth
# Test name: Anticancer human tumor 439559-082-T-J2-PDC cell line growth inhibition [Asc];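 note: spheroids exposed to agents for 7 days starting day 3 after seeding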;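 for viability, T/C: percent of DMSO vehicle control viability with 100% = vehicle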
# Recorded conditions: second compound 0.316 µM; first compound 0.00949 µM; stronger effect = lower value
Quantity: viability, T/C (%)
Give bare numbers, in %.

Sample records with viability, T/C:
>  <Compound>
Cc1nc(N2CCC3(CC2)COC(C)C3N)c(CO)nc1Sc1ccnc(N)c1Cl (stereo unspecified) + CNC(C)C(=O)NC1CN(S(=O)(=O)c2cccc(S(=O)(=O)N3CCC4CCC(C(=O)NC(c5ccccc5)c5ccccc5)N4C(=O)C(NC(=O)C(C)NC)C3)c2)CCC2CCC(C(=O)NC(c3ccccc3)c3ccccc3)N2C1=O

>  <Value reported>
94.4

$$$$
>  <Compound>
NC(=O)C(=Cn1cnc(-c2cc(C(F)(F)F)cc(C(F)(F)F)c2)n1)c1cncnc1 + CNC(C)C(=O)NC1CN(S(=O)(=O)c2cccc(S(=O)(=O)N3CCC4CCC(C(=O)NC(c5ccccc5)c5ccccc5)N4C(=O)C(NC(=O)C(C)NC)C3)c2)CCC2CCC(C(=O)NC(c3ccccc3)c3ccccc3)N2C1=O

>  <Value reported>
87.2

$$$$
>  <Compound>
NC(=O)C(=Cn1cnc(-c2cc(C(F)(F)F)cc(C(F)(F)F)c2)n1)c1cncnc1 + Cc1c(S(C)(=O)=O)c(-c2cc(F)cc(N3CCN(c4ccc(NS(=O)(=O)c5ccc(NC(CCN6CCC(C(=O)OCCCP(=O)(O)O)CC6)CSc6ccccc6)c(S(=O)(=O)C(F)(F)F)c5)cc4)CC3)c2)c(-c2ccc(Cl)cc2)n1C(C)C

>  <Value reported>
94.9

$$$$

For each entry beneath this line, provide reported viability, T/C.
1. CCN1C(C(=O)NC23CCC(C(=O)O)(CC2)CC3)C(c2cccc(Cl)c2F)C2(C(=O)Nc3cc(Cl)ccc32)C12CCCCC2 (stereo unspecified) + CNC(C)C(=O)NC1CN(S(=O)(=O)c2cccc(S(=O)(=O)N3CCC4CCC(C(=O)NC(c5ccccc5)c5ccccc5)N4C(=O)C(NC(=O)C(C)NC)C3)c2)CCC2CCC(C(=O)NC(c3ccccc3)c3ccccc3)N2C1=O
2. Cc1nc(N2CCC3(CC2)COC(C)C3N)c(CO)nc1Sc1ccnc(N)c1Cl (stereo unspecified) + Cc1c(S(C)(=O)=O)c(-c2cc(F)cc(N3CCN(c4ccc(NS(=O)(=O)c5ccc(NC(CCN6CCC(C(=O)OCCCP(=O)(O)O)CC6)CSc6ccccc6)c(S(=O)(=O)C(F)(F)F)c5)cc4)CC3)c2)c(-c2ccc(Cl)cc2)n1C(C)C
3. CCN1C(C(=O)NC23CCC(C(=O)O)(CC2)CC3)C(c2cccc(Cl)c2F)C2(C(=O)Nc3cc(Cl)ccc32)C12CCCCC2 (stereo unspecified) + Cc1c(S(C)(=O)=O)c(-c2cc(F)cc(N3CCN(c4ccc(NS(=O)(=O)c5ccc(NC(CCN6CCC(C(=O)OCCCP(=O)(O)O)CC6)CSc6ccccc6)c(S(=O)(=O)C(F)(F)F)c5)cc4)CC3)c2)c(-c2ccc(Cl)cc2)n1C(C)C

105
96.4
103
